# system: UniProt:P08482
# Sequence (P08482 whole entry): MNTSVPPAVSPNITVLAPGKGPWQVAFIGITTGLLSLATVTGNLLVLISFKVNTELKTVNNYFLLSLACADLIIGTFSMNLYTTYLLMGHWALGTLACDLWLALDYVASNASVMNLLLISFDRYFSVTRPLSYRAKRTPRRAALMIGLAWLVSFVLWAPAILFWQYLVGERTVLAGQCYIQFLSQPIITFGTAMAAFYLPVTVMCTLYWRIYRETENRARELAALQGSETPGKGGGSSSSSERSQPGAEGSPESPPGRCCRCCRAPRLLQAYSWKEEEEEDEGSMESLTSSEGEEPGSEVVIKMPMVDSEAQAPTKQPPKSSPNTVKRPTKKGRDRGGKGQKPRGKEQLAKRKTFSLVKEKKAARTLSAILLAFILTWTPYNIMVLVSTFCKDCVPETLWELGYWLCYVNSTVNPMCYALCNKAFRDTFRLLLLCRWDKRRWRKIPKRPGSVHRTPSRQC
# experiment notes: Compound is tested for displacement of [3H]pirenzepine at […] in Rat brain homogenate.
# Format: tissue-based
Items are presented alongside their recorded log10 of Ki.
Values below are the log10 of the recorded Ki, with µM as the unit.

Take a look at these entries with their results.
>>> assay_result("Fc1ccc(C(OC2CC3CCC(C2)N3C/C=C/c2ccccc2)c2ccc(F)cc2)cc1 (stereo not drawn)")
-0.40
>>> assay_result("Fc1ccc(CN2C3CCC2CC(OC(c2ccc(F)cc2)c2ccc(F)cc2)C3)cc1 (stereo not drawn)")
0.19
>>> assay_result("Fc1ccc(CCCN2C3CCC2CC(OC(c2ccc(F)cc2)c2ccc(F)cc2)C3)cc1 (stereo not drawn)")
-0.16
>>> assay_result("Fc1ccc(C(O[C@H]2C[C@H]3CC[C@@H](C2)N3CCc2c[nH]c3ccccc23)c2ccc(F)cc2)cc1")
0.52
>>> assay_result("Fc1ccc(C(OC2CC3CCC(C2)N3CC2CC2)c2ccc(F)cc2)cc1 (stereo not drawn)")
-0.59

*Q* Determine from records and report log10 of Ki for O=[N+]([O-])c1ccc(-c2ccc(COCCN3C4CCC3CC(OC(c3ccc(F)cc3)c3ccc(F)cc3)C4)cc2)cc1 (stereo not drawn)
*A* -0.34

*Q* Determine from records and report log10 of Ki for Fc1ccc(C(OC2CC3CCC(C2)N3CCCc2ccccc2)c2ccc(F)cc2)cc1 (stereo not drawn)
*A* -0.51

*Q* Determine from records and report log10 of Ki for Fc1ccc(C(OC2CC3CCC(C2)N3Cc2ccccc2)c2ccc(F)cc2)cc1 (stereo not drawn)
*A* 0.01
